Target: AHR (Mus musculus, UniProt P30561)
Sequence (P30561 whole entry F348L/P471L, form open): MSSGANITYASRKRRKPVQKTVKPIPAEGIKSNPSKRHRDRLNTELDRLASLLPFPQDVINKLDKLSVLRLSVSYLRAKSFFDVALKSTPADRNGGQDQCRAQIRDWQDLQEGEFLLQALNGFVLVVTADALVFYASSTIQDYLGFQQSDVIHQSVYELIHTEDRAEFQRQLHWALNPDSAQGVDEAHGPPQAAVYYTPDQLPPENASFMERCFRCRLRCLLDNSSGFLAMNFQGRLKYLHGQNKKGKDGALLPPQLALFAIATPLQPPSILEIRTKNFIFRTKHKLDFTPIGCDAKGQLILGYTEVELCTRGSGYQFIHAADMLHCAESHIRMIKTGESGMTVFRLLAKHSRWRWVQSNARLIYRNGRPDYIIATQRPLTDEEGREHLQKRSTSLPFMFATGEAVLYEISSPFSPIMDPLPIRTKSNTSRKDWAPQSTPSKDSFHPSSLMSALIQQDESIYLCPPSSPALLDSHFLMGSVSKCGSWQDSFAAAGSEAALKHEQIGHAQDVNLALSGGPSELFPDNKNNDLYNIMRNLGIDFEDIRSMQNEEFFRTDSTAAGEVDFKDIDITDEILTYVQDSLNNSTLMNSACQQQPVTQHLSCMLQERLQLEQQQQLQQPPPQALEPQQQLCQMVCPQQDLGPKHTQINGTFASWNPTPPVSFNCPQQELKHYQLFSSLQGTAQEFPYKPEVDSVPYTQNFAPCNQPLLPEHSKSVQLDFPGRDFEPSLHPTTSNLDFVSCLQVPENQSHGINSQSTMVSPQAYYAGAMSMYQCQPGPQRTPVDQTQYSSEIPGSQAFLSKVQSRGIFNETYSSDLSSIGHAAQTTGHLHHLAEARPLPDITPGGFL
Assay: P450 CYP1A1 Luciferase Assay, Hepa1.6 (agonist)
Type: cell-based, murine
Settings: Hepa1.6, Table 2
pEC50: −log10 of the molar value.
readout: pEC50

> print(dat)
                                 chemsmiles  recordedresult
1  Cc1ccc(-c2csc(Nc3cccc(C(F)(F)F)c3)n2)cc1[N+](=O)[O-]    6.00 to 7.00
2  O=[N+]([O-])c1cccc(-c2csc(Nc3cccc(C(F)(F)F)c3)n2)c1    7.00 to 8.00
3  O=[N+]([O-])c1cncc(-c2csc(Nc3cccc(C(F)(F)F)c3)n2)c1    6.00 to 7.00
4  FC(F)(F)c1cccc(Nc2ncc(-c3cccc(Cl)c3)o2)c1          < 6.00
5  Oc1cccc(-c2csc(Nc3cccc(C(F)(F)F)c3)n2)c1          < 6.00
6  C[N+]1(CCNC(=O)N(c2cccc(C(F)(F)F)c2)c2nc(-c3cccc(Cl)c3)cs2)CCCCC1          < 6.00
7  Cc1c(-c2csc(Nc3cccc(C(F)(F)F)c3)n2)cccc1[N+](=O)[O-]          < 6.00
8  C[N+](C)(CCO)CCOC(=O)N(c1cccc(C(F)(F)F)c1)c1nc(-c2cccc(Cl)c2)cs1          < 6.00
9  N#Cc1cccc(-c2csc(Nc3cccc(C(F)(F)F)c3)n2)c1    7.00 to 8.00
